- target: UniProtKB P35499
- Sequence (P35499 whole entry, canonical isoform): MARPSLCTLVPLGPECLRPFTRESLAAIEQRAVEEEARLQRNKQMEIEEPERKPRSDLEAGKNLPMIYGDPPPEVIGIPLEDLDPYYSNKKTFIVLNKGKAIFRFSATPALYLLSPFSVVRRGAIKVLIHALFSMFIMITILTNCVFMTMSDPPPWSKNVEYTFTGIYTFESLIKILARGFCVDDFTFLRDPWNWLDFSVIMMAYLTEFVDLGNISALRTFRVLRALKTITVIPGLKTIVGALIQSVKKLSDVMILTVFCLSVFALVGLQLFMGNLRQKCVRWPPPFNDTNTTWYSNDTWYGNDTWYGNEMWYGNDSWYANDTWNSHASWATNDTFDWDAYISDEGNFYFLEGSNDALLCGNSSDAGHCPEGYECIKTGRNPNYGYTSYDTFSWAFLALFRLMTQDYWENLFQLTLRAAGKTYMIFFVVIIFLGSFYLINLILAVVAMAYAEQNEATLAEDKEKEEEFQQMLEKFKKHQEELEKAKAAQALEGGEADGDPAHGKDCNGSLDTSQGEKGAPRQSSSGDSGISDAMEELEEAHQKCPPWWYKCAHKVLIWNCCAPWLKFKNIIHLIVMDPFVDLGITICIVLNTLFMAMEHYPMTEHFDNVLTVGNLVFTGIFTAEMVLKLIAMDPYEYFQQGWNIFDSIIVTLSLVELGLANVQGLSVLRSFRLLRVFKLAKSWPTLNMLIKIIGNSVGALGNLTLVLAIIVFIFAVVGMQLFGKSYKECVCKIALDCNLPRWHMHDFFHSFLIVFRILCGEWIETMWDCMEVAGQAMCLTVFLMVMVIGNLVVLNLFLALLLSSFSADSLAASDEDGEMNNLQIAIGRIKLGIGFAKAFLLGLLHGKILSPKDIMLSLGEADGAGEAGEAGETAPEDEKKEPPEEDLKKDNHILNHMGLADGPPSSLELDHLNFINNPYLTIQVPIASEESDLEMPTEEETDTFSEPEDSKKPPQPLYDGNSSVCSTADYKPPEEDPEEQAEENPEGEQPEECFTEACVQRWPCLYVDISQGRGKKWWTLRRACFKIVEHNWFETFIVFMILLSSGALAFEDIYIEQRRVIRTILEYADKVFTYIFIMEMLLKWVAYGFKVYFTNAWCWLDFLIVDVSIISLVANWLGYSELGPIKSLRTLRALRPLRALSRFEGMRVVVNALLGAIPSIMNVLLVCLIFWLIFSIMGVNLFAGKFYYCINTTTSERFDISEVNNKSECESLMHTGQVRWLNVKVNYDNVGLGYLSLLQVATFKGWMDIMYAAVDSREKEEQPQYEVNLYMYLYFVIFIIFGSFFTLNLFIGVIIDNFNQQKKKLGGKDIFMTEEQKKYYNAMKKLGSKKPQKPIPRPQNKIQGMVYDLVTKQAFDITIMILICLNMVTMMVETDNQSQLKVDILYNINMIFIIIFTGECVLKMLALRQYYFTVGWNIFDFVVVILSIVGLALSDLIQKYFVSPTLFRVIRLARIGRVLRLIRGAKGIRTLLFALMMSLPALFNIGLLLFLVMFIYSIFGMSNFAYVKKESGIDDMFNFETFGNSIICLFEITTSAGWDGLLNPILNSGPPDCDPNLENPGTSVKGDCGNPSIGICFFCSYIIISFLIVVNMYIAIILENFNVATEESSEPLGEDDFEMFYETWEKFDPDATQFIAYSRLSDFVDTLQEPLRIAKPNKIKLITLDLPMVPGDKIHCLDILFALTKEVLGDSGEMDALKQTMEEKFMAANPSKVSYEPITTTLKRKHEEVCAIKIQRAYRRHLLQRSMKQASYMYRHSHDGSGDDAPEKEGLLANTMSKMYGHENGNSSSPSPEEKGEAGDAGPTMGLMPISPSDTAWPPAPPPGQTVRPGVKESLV
- test_name: Nav isoform selectivity, Nav1.4
- Type: cell-based
- Set-up: concentration or dose not given beside the values
readout_kind: Nav isoform inhibition (%) Nav1.4
# output: bare number, implied unit %

INPUT: // query Nav isoform inhibition (%) Nav1.4 value for entry COc1cccc(C(=O)NCc2noc(-c3nn(CCn4ccnc4)c4ccccc34)n2)c1OC [Example 30]
OUTPUT: 33

INPUT: Please look up its Nav isoform inhibition (%) Nav1.4: O=C(NCc1noc(-c2c3ccccc3nn2CCn2ccnc2)n1)c1cccc(OC(F)(F)F)c1 [Example 14]
OUTPUT: 98

INPUT: Sample O=C(NCc1noc(-c2c3ccccc3nn2CCn2ccnc2)n1)c1ccc2ccccc2c1 [Example 11] — what was its Nav isoform inhibition (%) Nav1.4?
OUTPUT: 97

INPUT: Recorded Nav isoform inhibition (%) Nav1.4 of O=C(NCc1noc(-c2c3ccccc3nn2CCn2ccnc2)n1)c1cccc(F)c1F [Example 10] , please.
OUTPUT: 77

INPUT: Given the molecule COc1ccc(C(=O)NCc2noc(-c3nn(CCn4ccnc4)c4ccccc34)n2)c(OC)c1OC [Example 16] , what is its reported Nav isoform inhibition (%) Nav1.4?
OUTPUT: 43

INPUT: Param item = COc1cccc(C(=O)NCc2noc(-c3c4ccccc4nn3CCn3ccnc3)n2)c1OC [Example 6] ; retrieve measured Nav isoform inhibition (%) Nav1.4.
OUTPUT: 45
